- MEASUREMENT_TARGET: hTRPV3 (Homo sapiens (Human), UniProt Q8NET8)
- Sequence (Q8NET8 whole entry): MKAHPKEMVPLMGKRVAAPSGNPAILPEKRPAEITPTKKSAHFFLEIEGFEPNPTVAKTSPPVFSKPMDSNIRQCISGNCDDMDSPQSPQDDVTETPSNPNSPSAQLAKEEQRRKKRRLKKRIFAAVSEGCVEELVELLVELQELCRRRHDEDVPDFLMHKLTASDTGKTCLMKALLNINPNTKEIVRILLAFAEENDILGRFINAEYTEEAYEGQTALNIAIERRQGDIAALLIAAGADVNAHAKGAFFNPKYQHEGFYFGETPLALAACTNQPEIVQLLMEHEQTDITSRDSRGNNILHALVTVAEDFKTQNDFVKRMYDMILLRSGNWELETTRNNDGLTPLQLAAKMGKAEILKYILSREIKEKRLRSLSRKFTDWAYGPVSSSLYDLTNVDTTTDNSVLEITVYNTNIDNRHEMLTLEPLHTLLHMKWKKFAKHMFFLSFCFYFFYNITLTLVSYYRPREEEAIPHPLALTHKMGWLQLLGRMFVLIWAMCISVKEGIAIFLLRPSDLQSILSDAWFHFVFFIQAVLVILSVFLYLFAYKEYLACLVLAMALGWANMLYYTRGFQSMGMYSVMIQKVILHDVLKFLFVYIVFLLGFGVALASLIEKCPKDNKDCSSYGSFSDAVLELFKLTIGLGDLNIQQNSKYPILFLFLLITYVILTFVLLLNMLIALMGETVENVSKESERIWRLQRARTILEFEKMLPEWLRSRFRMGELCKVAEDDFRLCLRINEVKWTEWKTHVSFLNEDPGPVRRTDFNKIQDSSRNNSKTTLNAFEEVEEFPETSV
- PROCEDURE_DETAILS: FLIPR Assay (calcium flux, HEK293 cells stably expressing TRPV3)
- Type: cell-based
- ASSAY_SETUP: read-out: FLIPR IC50
Some compounds, each annotated with its measured IC50.

O=C(c1ccc(O)nn1)N1CCC(c2ccc(-c3ccccc3C3CC3)cc2CO)C1 (centres unmarked); > 10 µM
O=C(c1ccc(CO)cn1)N1CCC(c2ccc(-c3ccccc3C3CC3)cc2CO)C1 (centres unmarked); 9.5 µM
Cc1nnc(C(=O)N2CCC(c3ccc(-c4ccccc4C4CC4)cc3CO)C2)o1 (centres unmarked); > 10 µM
COc1cncc(C(=O)N2CCC(c3ccc(-c4ccccc4C4CC4)cc3CO)C2)n1 (centres unmarked) [Compound 2.151]; 0.78 µM
COc1ccnc(C(=O)N2CCC(c3ccc(-c4ccccc4C4CC4)cc3CO)C2)c1 (centres unmarked); 4.49 µM
Cc1nc(C(=O)N2CCC(c3ccc(-c4ccccc4C4CC4)cc3CO)C2)cnc1O (centres unmarked); 5.17 µM
Cc1nnc(C(=O)N2CCC(c3ccc(-c4ccccc4C4CC4)cc3CO)C2)cc1O (centres unmarked); > 10 µM

Turning now to a further compound:
Problem: State, in one line, measured IC50 of O=C(c1ncccc1O)N1CCC(c2ccc(-c3ccccc3C3CC3)cc2CO)C1 (centres unmarked)
Result: 7.68 µM

Just for reference, patent US12435061B2 is where these values come from.
